The origin of these recorded values is PubChem BioAssay (NCI).

For each entry below, report its growth value.
System: M14 melanoma
PROTOCOL: NCI-60 one-dose screen, 48 h (100 = growth as untreated, 0 = no growth, -100 = all killed)
EXPERIMENTAL CONTEXT: 10 µM unless noted
This is part of a sample that, as a whole, favours compounds with a hit. Of some 83,000 tested, about 20% had one in any assay.
Please respond with the number in % and leave the unit unwritten.

Lookup: growth / M14 melanoma / CC(=O)O[C@]1(C(C)=O)CC[C@H]2[C@@H]3C=C(Cl)C4=CC(=O)CC[C@]4(C)[C@H]3CC[C@@]21C 103

Find the measured growth: item O=C1NC(=O)C(=Cc2cn(Cc3ccccn3)c3ccccc23)C(=O)N1 , target or system M14 melanoma. 99.7

# returns recorded growth (system: M14 melanoma) for Clc1ccc(C2CC(c3cccc(Nc4ccncc4)c3)=NN2c2cc(Cl)cc(Cl)c2)cc1 (stereo not given) -63.9

Return growth measured with M14 melanoma given this molecule: CN1CCN(C(=O)OCc2nc3c(N4CCOCC4)nc(-c4ccccc4)nc3n2C)CC1 -73.5

Param readout= growth; system= M14 melanoma; entry= COc1ccc(-c2c(-c3ccccc3)noc2N)cc1OC ; returns value. 98.4

Query growth on M14 melanoma for COc1ccc(C(O)c2cc3c(N)c(C(=O)Nc4ccc(Br)cc4)sc3nc2C)cc1 (stereo not given) 3.91

Give M14 melanoma growth for CC1(c2ccccc2)NC(=O)N(CC(=O)Nc2cccc(I)c2)C1=O (stereo not given) 102

Request body: readout growth, system M14 melanoma, query COc1ccc(C(=O)c2cc(C)c(OC)c(C)c2)c(OC)c1O . Return the value. -1.65

Requested read-out growth, target or system M14 melanoma, entry O=C1CCC(NC(=S)Nc2ccccc2)N1 (stereo not given) 110

Lab note: need growth with M14 melanoma for entry COc1cccc(CNCCN2C(=O)c3ccc4c5c(ccc(c35)C2=O)C(=O)N(CCNCc2cccc(OC)c2)C4=O)c1 , please look it up. 71.7
